Listed below: pIC50 values for each entry.
Biological target: UniProt:P31749
Test: PKB kinase assay (P33-labeled ATP, peptide substrate, filter plate)
Details: PKBα enzyme (full length or kinase domain with pleckstrin domain deleted)
pIC50: −log10 of the molar value.

Below, each entry is followed by its recorded pIC50 result.
compound: CNc1cc2cc(-c3cnc(NC[C@@H](N)Cc4ccc(C(F)(F)F)cc4)s3)ccc2cn1
assay result: > 7.30
--
compound: N[C@H](CNc1ncc(-c2ccc3c(c2)CC(=O)N3)s1)Cc1ccc(Cl)c(F)c1
assay result: > 7.30
--
compound: COC(C)c1nc(NC[C@@H](N)Cc2ccc(C(F)(F)F)cc2)sc1-c1ccc2cnccc2c1 (some centres unmarked)
assay result: 6.00 to 7.30
--
compound: COCc1nc(N(C[C@H](Cc2ccc(C(F)(F)F)cc2)NCCN2CCOCC2)C(C)=O)sc1-c1nc2ccncc2s1
assay result: < 5.00
--
compound: COCc1nc(NC[C@@H](N)Cc2ccc(C(F)(F)F)cc2)sc1-c1ccc2cnccc2n1
assay result: > 7.30
--
compound: Nc1n[nH]c2cc(-c3cnc(NC[C@@H](N)Cc4ccc(C(F)(F)F)cc4)s3)ccc12
assay result: 5.00 to 6.00

What does the data say about its pIC50? Entry: Cn1c(=O)[nH]c2ccc(-c3cnc(NC[C@@H](N)Cc4cc(F)cc(F)c4)s3)cc21
5.00 to 6.00

Suppose we examine the compound NC(CNc1ncc(-c2ccc3[nH]c(=O)oc3c2)s1)Cc1ccc(OC(F)(F)F)cc1 (centres unmarked) ; what pIC50 value has been reported?
6.00 to 7.30

* * *

Target: PKBα (Homo sapiens, UniProt P31749)
Sequence (P31749 118-480 limits assumed): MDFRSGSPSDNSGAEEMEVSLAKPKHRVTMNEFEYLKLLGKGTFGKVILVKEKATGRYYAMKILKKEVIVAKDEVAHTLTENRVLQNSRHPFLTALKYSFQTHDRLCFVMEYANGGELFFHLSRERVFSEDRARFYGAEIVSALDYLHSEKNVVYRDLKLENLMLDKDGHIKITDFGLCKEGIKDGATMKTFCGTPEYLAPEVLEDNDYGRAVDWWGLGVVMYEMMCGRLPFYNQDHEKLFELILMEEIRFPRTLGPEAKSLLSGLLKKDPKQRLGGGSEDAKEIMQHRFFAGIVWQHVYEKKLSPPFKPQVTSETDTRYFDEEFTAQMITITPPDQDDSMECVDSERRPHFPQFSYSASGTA
Assay: PKB kinase assay (P33-labeled ATP, peptide substrate, filter plate)
Conditions: PKBα enzyme (full length or kinase domain with pleckstrin domain deleted)
Entries annotated with measured IC50

molecule: N[C@H](CNc1ncc(-c2cnc3c(c2)CC(=O)N3)s1)Cc1ccc(C(F)(F)F)nc1 [Example 227]
assay result: 50 to 1000 nM
--
molecule: N#Cc1nc(NC[C@@H](N)Cc2ccc(C(F)(F)F)cc2)sc1-c1ccc2cnccc2c1 [Example 63]
assay result: 1000 to 10000 nM
--
molecule: N[C@H](CNc1ncc(-c2ccc3[nH]c(=O)oc3c2)s1)Cc1c[nH]c2ccccc12 [Example 39]
assay result: 50 to 1000 nM
--
molecule: N[C@H](CNc1ncc(-c2ccc3cnccc3c2)s1)Cc1ccc(Cl)c(F)c1 [Example 85]
assay result: < 50 nM
--
molecule: N[C@H](CNc1ncc(-c2ccc3c(c2)CC(=O)N3)s1)Cc1ccc(C(F)(F)F)nc1 [Example 171]
assay result: < 50 nM
--
molecule: N[C@H](CNc1ncc(-c2ccc3c(c2)/C(=C/c2ccco2)C(=O)N3)s1)Cc1c[nH]c2ccccc12 (stereo in doubt) [Example 72]
assay result: 50 to 1000 nM

So what does the record say about IC50 for C/C=C/[C@@H](c1ccc(C(F)(F)F)cc1)[C@H](N)CNc1ncc(-c2ccc3c(c2)CC(=O)N3)s1 [Example 155] ?
< 50 nM

* * *

Listed molecules paired with reported pIC50
Molecular target: PKBα (Homo sapiens, UniProt P31749)
Assay: PKB kinase assay (P33-labeled ATP, peptide substrate, filter plate)
Settings: PKBα enzyme (full length or kinase domain with pleckstrin domain deleted)
pIC50: −log10 of the molar value.

// below: answered molecules
molecule: Cn1c(=O)[nH]c2ccc(-c3cnc(NC[C@@H](N)Cc4ccc(C(F)(F)F)c(F)c4)s3)cc21 [Example 184]
pIC50: > 7.30
//
molecule: COCc1nc(NC[C@H](Cc2ccc(C(F)(F)F)cc2)NCCN2CCOCC2)sc1-c1nc2ccncc2s1 [Example 34]
pIC50: 6.00 to 7.30
//
molecule: N[C@H](CNc1nc(-c2ccc(F)cc2)c(-c2ccc3cnccc3c2)s1)Cc1ccc(C(F)(F)F)cc1 [Example 102]
pIC50: 6.00 to 7.30

Attention now turns to another entry.
Return pIC50 measured with PKBα (Homo sapiens, UniProt P31749) given this molecule: N[C@H](CNc1ncc(-c2ccc3c(c2)CC(=O)N3)s1)Cc1ccc(OCCCO)cc1 [Example 95]
5.00 to 6.00
